- TEST TARGET: human orexin type 2 receptor (Homo sapiens)
- Construct: expressed in transfected cells
- Sequence (O43614 whole entry): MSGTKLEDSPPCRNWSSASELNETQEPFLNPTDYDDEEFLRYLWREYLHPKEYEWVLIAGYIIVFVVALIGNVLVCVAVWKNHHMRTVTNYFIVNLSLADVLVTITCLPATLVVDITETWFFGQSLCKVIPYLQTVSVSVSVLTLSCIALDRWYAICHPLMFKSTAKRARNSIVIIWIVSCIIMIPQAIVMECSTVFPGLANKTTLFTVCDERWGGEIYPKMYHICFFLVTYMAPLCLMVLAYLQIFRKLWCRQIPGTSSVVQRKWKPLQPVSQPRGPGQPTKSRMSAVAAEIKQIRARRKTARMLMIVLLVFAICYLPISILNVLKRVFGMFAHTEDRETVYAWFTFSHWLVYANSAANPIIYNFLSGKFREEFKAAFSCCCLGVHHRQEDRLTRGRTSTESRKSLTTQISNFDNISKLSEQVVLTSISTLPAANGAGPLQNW
- ASSAY OVERVIEW: Measurement of orexin type 2 receptor agonist activity (calcium indicator fluorescence, CHO cells forcibly expressing human OX2 receptor)
- Type: cell-based
- CONDITION SET: compound at 3 μM; 0% = DMSO, 100% = orexin A (human) 10 nM
# OX2R agonist activity (3 μM, %) per entry
Report the value in % with no unit label.

- MOLECULE: "Cc1cccc(-c2cccc(C[C@H]3[C@@H](NS(=O)(=O)C4CC4)[C@@H](F)CN3C(=O)C3CCO3)c2F)c1 (stereo partly drawn) [Example 484]"
  MEASURED ENDPOINT: "OX2R agonist activity (3 μM, %)"
  MEASURE UNIT: "%"
  MEASURED VALUE: 90
- MOLECULE: "CS(=O)(=O)N[C@@H]1[C@H](Cc2cccc(-c3cccc(F)c3F)c2F)N(C(=O)C2CC(F)C2)CC1(F)F (stereo partly drawn) [Example 435]"
  MEASURED ENDPOINT: "OX2R agonist activity (3 μM, %)"
  MEASURE UNIT: "%"
  MEASURED VALUE: 88

Below: the item to evaluate.
Item: CS(=O)(=O)N[C@H]1[C@@H](F)CN(C(=O)C2CCO2)[C@H]1Cc1cccc(-c2cc(F)cc(F)c2)c1F (stereo partly drawn) [Example 324] | OX2R agonist activity (3 μM, %): 91
